These data points were gathered from PubChem BioAssay.

- assay overview: basal RPMI8226 viability, no added stimulus, profiling panel, cell-based, calcein-AM fluorescence, 48 h, PK04 Diversity Set (AID 1166);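 further: cells grown under basal conditions without added stimulus; test concentration not given here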
- protocol conditions: RPMI8226 myeloma viability, higher = more signal
Please use the following z-score ranges when assigning a class: 0 = under -0.7, 1 = from -0.7 up to -0.06, 2 = -0.06 and over

# example entries with known answers
1. COCCCNC(=O)[C@@H]1c2ccccc2C(=O)N(C2CCCCC2)[C@H]1c1ccc(CO)cc1 :: 1
2. CCCCC(=C=CC[C@H](O)c1ccc(OCCO)cc1)C[C@H](O)c1ccccn1 :: 1

## Task In plain terms, what class is `Cc1c(-c2ccc(-c3ccc(Cl)c(Cl)c3)o2)nc(-c2ccccc2)c2c1CO[Si]2(C(C)C)C(C)C` ?
## Result 0

## Task Class label required: C=CC(CO)NC(=O)OCC1c2ccccc2-c2ccccc21 (centres undefined)
## Result 2

## Task Kindly state the category for this compound: CCCCN1CC=CC23O[C@@H]4/C=C\CCC(C)OC(=O)C4[C@H]2C(=O)N(C(C)CO)[C@@H]3C1=O (some centres undefined)
## Result 1

## Task Which of the defined bands does the recorded z-score of `O=C1c2ccccc2[C@@]2(Cc3ccccc3N(Cc3ccccc3)C2=O)[C@H](c2ccc(CO)cc2)N1Cc1ccccc1` sit within?
## Result 0

## Task Which bin should I file `CCCCC(=C=CC[C@@H](O)c1cccc(OCCO)c1)C[C@@H](O)COCc1ccccc1` under?
## Result 2

---

- assay overview: E. coli acrAB mutant growth effects, primary screen, E. coli filamentation inducers, strain DRC39, OD650, 48 h (AID 1179);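 further: screen aims at cell division blockers that make cells filament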
- protocol conditions: E. coli DRC39 delta-acrAB growth, higher = more signal, called active from +8 up or from −8 down
Decision: z-score >= -0.2 yields yes (1), all other cases yield no (0).

1) O=C1c2ccccc2[C@@]2(Cc3ccccc3N(Cc3ccccc3)C2=O)[C@H](c2ccc(CO)cc2)N1Cc1ccccc1 :: yes (1)
2) CCOC(=O)C[C@H]1[C@H](OC(=O)Cc2ccc3c(c2)OCO3)[C@@H](NC(=O)c2ccccc2)c2cc(OCCCO)ccc2N1C(=O)Cc1ccc(OC)cc1 :: yes (1)
3) COCCOC(=O)N1C(=O)[C@@]2(c3cc(C#CCCO)ccc31)[C@H](C(=O)N1CCN(c3ncccn3)CC1)[C@H]1C(=O)O[C@H](c3ccccc3)[C@H](c3ccccc3)N1[C@@H]2c1ccc(O)cc1 :: yes (1)
4) COC(=O)[C@@]1(CCS(=O)(=O)c2ccccc2)N=C(c2ccc(OCCCO)cc2)O[C@H]1c1ccccc1N=[N+]=[N-] :: no (0)
5) C=CCC(OC(C)=O)[C@@H]1[C@@H](N(Cc2ccc(-c3ccccc3)cc2)C(=O)c2ccc(C)cc2)c2cc(OCCCO)ccc2N1C(=O)c1ccc2ccccc2c1 (stereo partly drawn) :: yes (1)

## Task Form field: z-score at least -0.2? Entry: `CO[C@H]1O[C@H](CO)[C@@H](OC(=O)Nc2ccccc2)[C@@H]2OC(=O)[C@H](Cc3ccccc3)C/C=C/C[C@@H](Cc3ccccc3)C(=O)O[C@@H]12`
## Result yes (1)

## Task Is reported z-score greater than or equal to -0.2 here: C=CCC(OC(C)=O)[C@@H]1[C@@H](N(Cc2ccc(-c3ccccc3)cc2)C(=O)c2ccc(-c3ccccc3)cc2)c2cc(OCCCO)ccc2N1C(=O)c1ccc2ccccc2n1 (stereo partly drawn)
## Result yes (1)

## Task I'd appreciate it if you could say whether `Cc1c(-c2ccc(-c3ccc(Cl)c(Cl)c3)o2)nc(-c2ccccc2)c2c1CO[Si]2(C(C)C)C(C)C` has z-score at least equal to -0.2.
## Result yes (1)

## Task Given the entry `COC(=O)[C@H](Cc1ccc(O)cc1)N1CC2=CCCC=C[C@@H]2[C@H]1[C@H](O)Cc1ccccc1` , answer whether its z-score meets or surpasses -0.2.
## Result yes (1)

## Task Does the compound `O=C(NCCO)C1=C[C@H](Oc2ccccc2I)[C@@H](O)[C@H](NCc2ccc(F)cc2)C1` have recorded z-score that is -0.2 or more?
## Result no (0)

## Task Given the entry CCN(CC)c1ccc(N2CC=CC34O[C@@H]5C=CCOC(=O)[C@@H]5[C@H]3C(=O)N(CCCO)[C@@H]4C2=O)cc1 (stereo partly drawn) , answer whether its z-score meets or surpasses -0.2.
## Result yes (1)

## Task Check this compound for z-score at or above -0.2: `C=CC[C@]1(C(=O)OC)N=C(c2ccc(OCCCO)cc2)O[C@H]1c1ccccc1N=[N+]=[N-]`
## Result no (0)
